The following binders are listed with their measured Fold IC50 increase relative to wild-type values.
- ASSAYED_TARGET: HIV-1 JR-CSF Env R350A (HIV-1 isolate JR-CSF) (UniProt P20871)
- ASSAY: cell-based or functional assay
MEASUREMENT_NAME: Fold IC50 increase relative to wild-type (fold)

PGT-135 (antibody, V domains shown) VH: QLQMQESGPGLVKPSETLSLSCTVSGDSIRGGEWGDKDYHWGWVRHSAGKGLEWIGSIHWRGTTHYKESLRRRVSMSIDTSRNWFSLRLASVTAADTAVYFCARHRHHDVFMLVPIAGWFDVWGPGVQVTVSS VL: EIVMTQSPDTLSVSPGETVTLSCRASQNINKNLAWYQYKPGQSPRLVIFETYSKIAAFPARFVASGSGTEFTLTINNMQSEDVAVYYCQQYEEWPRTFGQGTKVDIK: 0.9
PGT-125 (antibody, V domains shown) VH: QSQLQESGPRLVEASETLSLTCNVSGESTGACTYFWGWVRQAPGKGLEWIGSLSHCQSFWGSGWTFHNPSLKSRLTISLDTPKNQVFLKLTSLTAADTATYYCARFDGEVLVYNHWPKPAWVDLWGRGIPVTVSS VL: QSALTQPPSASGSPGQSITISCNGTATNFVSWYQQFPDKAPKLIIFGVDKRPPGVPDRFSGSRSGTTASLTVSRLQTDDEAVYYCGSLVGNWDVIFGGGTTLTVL: 0.6
PGT-127 (antibody, V domains shown) VH: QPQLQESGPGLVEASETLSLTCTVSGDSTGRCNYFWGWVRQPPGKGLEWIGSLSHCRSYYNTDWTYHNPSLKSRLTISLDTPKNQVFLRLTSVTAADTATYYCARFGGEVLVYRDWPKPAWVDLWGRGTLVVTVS VL: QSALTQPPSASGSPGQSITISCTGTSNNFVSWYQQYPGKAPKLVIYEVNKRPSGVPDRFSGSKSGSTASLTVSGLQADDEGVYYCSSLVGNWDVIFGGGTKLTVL: 1.1
PGT-123 (antibody, V domains shown) VH: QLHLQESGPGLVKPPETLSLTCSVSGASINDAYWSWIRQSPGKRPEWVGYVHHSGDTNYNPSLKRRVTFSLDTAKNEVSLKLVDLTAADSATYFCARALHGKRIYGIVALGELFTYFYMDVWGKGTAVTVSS VL: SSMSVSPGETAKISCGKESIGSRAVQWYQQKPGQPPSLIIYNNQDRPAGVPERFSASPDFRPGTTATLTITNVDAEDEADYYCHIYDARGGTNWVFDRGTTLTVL: 0.5
PGT-130 (antibody, V domains shown) VH: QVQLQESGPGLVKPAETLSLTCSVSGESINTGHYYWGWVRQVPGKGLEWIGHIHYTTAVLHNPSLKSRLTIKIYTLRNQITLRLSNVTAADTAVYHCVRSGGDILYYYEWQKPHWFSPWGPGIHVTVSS VL: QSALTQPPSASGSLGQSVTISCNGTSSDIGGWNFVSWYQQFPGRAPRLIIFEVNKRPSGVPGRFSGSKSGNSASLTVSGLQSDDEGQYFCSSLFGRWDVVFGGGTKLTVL: 0.5
PGT-126 (antibody, V domains shown) VH: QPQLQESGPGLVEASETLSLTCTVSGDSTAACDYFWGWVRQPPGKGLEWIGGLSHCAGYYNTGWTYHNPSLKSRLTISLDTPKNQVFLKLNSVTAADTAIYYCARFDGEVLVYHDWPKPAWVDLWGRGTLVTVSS VL: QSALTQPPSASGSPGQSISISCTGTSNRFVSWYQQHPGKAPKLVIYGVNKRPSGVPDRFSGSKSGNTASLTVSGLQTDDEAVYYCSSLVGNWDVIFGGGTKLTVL: 0.7
PGT-128 (antibody, V domains shown) VH: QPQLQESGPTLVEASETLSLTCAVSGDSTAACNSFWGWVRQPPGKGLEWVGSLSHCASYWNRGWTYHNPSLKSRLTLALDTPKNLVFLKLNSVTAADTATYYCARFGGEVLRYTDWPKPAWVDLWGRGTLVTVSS VL: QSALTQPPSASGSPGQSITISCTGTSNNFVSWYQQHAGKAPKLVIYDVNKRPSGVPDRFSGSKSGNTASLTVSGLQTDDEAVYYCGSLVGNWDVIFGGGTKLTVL: 1
PGT-131 (antibody, V domains shown) VH: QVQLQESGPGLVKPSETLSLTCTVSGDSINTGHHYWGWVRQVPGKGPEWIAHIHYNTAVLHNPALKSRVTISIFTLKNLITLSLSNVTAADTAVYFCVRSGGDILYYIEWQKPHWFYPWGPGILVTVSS VL: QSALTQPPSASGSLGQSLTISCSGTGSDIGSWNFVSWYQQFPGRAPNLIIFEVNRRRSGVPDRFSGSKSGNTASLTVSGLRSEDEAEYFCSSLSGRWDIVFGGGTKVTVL: 1.3
